Molecular target: hMOR (Homo sapiens, UniProt P35372)
Sequence (P35372 whole entry): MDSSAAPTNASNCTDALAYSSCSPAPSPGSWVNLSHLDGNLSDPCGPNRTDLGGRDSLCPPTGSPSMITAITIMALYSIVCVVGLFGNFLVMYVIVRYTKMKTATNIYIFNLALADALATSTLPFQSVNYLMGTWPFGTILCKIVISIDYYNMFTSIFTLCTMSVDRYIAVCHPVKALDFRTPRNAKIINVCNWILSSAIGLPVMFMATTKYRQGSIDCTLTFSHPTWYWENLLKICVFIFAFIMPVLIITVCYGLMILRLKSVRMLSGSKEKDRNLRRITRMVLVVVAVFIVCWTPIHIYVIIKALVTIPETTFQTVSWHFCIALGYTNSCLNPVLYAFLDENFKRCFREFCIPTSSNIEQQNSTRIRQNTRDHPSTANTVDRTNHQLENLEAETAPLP
Assay: Radioligand binding assay (Eurofins Cerep), [3H]DAMGO displacement
Settings: Table A4, data summary #2; read-out: MOR Ki ± SEM
# if measured Ki < 0.7 µM: y  # else: n

For this compound, is Ki lower than 0.7 µM? CC[C@@H]1CN2CCc3c([nH]c4cccc(OC)c34)[C@@H]2C[C@@H]1/C(=C\OC)C(=O)N(C)CC [SUSM-520] y

Here's an entry: CCCNC(=O)/C(=C/OC)[C@H]1C[C@H]2c3[nH]c4cccc(OC)c4c3CCN2C[C@H]1CC [SUSM-27] . Is its Ki below 0.7 µM? n

Regarding CC[C@@H]1CN2CCc3c([nH]c4cccc(OC)c34)[C@@H]2C[C@@H]1/C(=C\OC)C(=O)NC [SUSM-25] , kindly confirm whether its Ki is beneath 0.7 µM. n

Is 0.7 µM strictly greater than the compound's reported Ki? compound: CC[C@@H]1CN2CCc3c([nH]c4cccc(OC)c34)[C@@H]2C[C@@H]1/C(=C\OC)C(=O)N(C)Cc1ccccc1 [SUSM-563] n

State whether 0.7 µM exceeds Ki recorded for CC[C@@H]1CN2CCc3c([nH]c4cccc(OC)c34)[C@@H]2C[C@@H]1/C(=C\OC)C(=O)NCc1ccccc1 [SUSM-560] . n

Dear reviewer, please state whether CC[C@@H]1CN2CCc3c([nH]c4cccc(OC)c34)[C@@H]2C[C@@H]1/C(=C\OC)C(=O)N(C)C1CCCCC1 [SUSM-523] has Ki strictly beneath 0.7 µM. y

---

Molecular target: α2A adrenergic receptor (Homo sapiens, UniProt P08913)
Construct: Eurofins Cerep (contract screening)
Sequence (P08913 whole entry): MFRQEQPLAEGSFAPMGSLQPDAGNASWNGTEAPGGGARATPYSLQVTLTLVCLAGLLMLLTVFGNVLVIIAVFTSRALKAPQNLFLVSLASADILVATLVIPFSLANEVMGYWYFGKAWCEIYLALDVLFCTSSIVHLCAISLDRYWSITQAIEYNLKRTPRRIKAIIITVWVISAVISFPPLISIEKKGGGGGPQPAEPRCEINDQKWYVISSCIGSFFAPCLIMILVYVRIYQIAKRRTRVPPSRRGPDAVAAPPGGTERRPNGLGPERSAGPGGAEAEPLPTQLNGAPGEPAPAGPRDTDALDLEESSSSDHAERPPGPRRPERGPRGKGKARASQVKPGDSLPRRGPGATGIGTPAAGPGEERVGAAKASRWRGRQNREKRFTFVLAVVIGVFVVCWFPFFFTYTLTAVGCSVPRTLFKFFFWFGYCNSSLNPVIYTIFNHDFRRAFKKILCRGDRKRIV
Assay: Radioligand binding assay (Eurofins Cerep), [3H]RX 821002 displacement
Conditions: Table B1′; read-out: alpha2A Ki ± SEM
MEASURED ATTRIBUTE: Ki
Returns: string containing the numeric result and its unit.

[[record]]
compound = "COC(=O)CC1CCN2CC=C(c3ccccc3)CC2C1 (stereo not drawn)"
result = "7 nM"

[[record]]
compound = "CC[C@@H]1CN2CCc3c([nH]c4ccccc34)[C@@H]2C[C@@H]1/C(=C\\OC)C(=O)OC [Corynantheidine, reference compound]"
result = "68 nM"

[[record]]
compound = "CC[C@@H]1CN2CCc3c([nH]c4cccc(OC)c34)[C@@H]2C[C@@H]1/C(=C\\OC)C(=O)OC [Mitragynine, mitragynine, reference compound]"
result = "4090 nM"

[[record]]
compound = "COC(=O)CC1CCN2CC=C(c3ccccc3OC)CC2C1 (stereo not drawn)"
result = "15 nM"

[[record]]
compound = "COC(=O)CC1CCN2CCC(c3ccccc3)=CC2C1 (stereo not drawn)"
result = "5 nM"


Proceed to the following item.
Requested read-out Ki, target or system α2A adrenergic receptor (Homo sapiens, UniProt P08913), entry COC(=O)CC1CCN2CCC(c3ccccc3OC)CC2C1 (stereo not drawn) [drawing 171] 24 nM

---

Target: hDOR (Homo sapiens, UniProt P41143)
Sequence (P41143 whole entry): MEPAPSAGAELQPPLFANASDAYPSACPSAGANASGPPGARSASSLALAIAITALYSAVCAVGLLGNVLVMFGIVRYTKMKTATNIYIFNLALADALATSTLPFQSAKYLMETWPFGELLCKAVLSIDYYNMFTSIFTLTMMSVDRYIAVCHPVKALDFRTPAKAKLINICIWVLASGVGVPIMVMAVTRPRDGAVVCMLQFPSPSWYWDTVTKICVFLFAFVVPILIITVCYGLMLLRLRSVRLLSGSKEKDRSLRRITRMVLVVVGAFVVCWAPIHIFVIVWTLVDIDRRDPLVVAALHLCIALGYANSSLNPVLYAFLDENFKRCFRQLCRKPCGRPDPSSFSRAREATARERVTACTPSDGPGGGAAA
Assay: Radioligand binding assay (Eurofins Cerep), [3H]DADLE displacement
Conditions: Table 3-2; 3 independent experiments; read-out: Ki (nM ± SEM) DOR
MEASURED ATTRIBUTE: Ki

Recorded results for 4 molecules are shown here.
[[record]]
molecule = "COC=C(C(=O)OC)C1CCN(CCc2c[nH]c3c(OC)cccc23)CC1 [Compound 3-41]"
measurement_target = "hDOR (Homo sapiens, UniProt P41143)"
result = "> 10000 nM"

[[record]]
molecule = "COC(=O)CC1CCN(CCc2c[nH]c3cc(OC)ccc23)CC1 [Compound 3-40]"
measurement_target = "hDOR (Homo sapiens, UniProt P41143)"
result = "> 10000 nM"

[[record]]
molecule = "COC(=O)CC1CCN(CCc2c[nH]c3c(OC)cccc23)CC1 [Compound 3-42]"
measurement_target = "hDOR (Homo sapiens, UniProt P41143)"
result = "> 10000 nM"

[[record]]
molecule = "COC(=O)CC1CCN(CCc2c[nH]c3ccccc23)CC1 [Compound 3-24]"
measurement_target = "hDOR (Homo sapiens, UniProt P41143)"
result = "> 10000 nM"


With those in mind, consider the next molecule.
Name the recorded Ki for CO/C=C(/C(=O)OC)C1CCN(CCc2c[nH]c3ccccc23)CC1 [Compound 3-23] . > 10000 nM

---

Target: α2A adrenergic receptor (Homo sapiens, UniProt P08913)
Construct: Eurofins Cerep (contract screening)
Assay: Radioligand binding assay (Eurofins Cerep), [3H]RX 821002 displacement
Settings: Table A1, data summary #1; read-out: Alpha2A Ki ± SEM
Reported pKi values for a set of compounds
Formally, pKi is defined as -log10 of the concentration c, with c in mol/L.

[[record]]
compound = "CC[C@@H]1CN2CCc3c([nH]c4cccc(OC)c34)[C@@H]2C[C@@H]1/C(=C\\OC)C(=O)OC [Mitragynine, mitragynine, reference compound]"
measured_attribute = "pKi"
numeric_result = 5.39

[[record]]
compound = "CC[C@@H]1CN2CCc3c([nH]c4cccc(OC)c34)[C@@H]2C[C@@H]1/C(=C\\OC)C(=O)N(CC)CC [SUSM-509]"
measured_attribute = "pKi"
numeric_result = 5.28

[[record]]
compound = "CC[C@@H]1CN2CCc3c([nH]c4cccc(OC)c34)[C@@H]2C[C@@H]1/C(=C\\OC)C(=O)N1CCCC1 [SUSM-507]"
measured_attribute = "pKi"
numeric_result = 5.01

[[record]]
compound = "CCNC(=O)/C(=C/OC)[C@H]1C[C@H]2c3[nH]c4cccc(OC)c4c3CCN2C[C@H]1CC [SUSM-32]"
measured_attribute = "pKi"
numeric_result = 5.37

[[record]]
compound = "CCCNC(=O)/C(=C/OC)[C@H]1C[C@H]2c3[nH]c4cccc(OC)c4c3CCN2C[C@H]1CC [SUSM-27]"
measured_attribute = "pKi"
numeric_result = 5.56

[[record]]
compound = "CC[C@@H]1CN2CCc3c([nH]c4cccc(OC)c34)[C@@H]2C[C@@H]1/C(=C\\OC)C(=O)NC1CCCC1 [SUSM-506]"
measured_attribute = "pKi"
numeric_result = 5.05


Switching to the query record.
# lookup: pKi of CC[C@@H]1CN2CCc3c([nH]c4cccc(OC)c34)[C@@H]2C[C@@H]1/C(=C\OC)C(=O)NC [SUSM-25] 5.15

---

Biological target: UniProt P41143
Assay: Radioligand binding assay (Eurofins Cerep), [3H]DADLE displacement
Details: DOR Ki ± SEM (nM), Table A4, data summary #2
MEASURED ATTRIBUTE: Ki (nM)
Give a bare numeral; the unit nM is implied.

Below: 2 compounds and their reported Ki.
[[record]]
smiles_repr = "CC[C@@H]1CN2CCc3c([nH]c4cccc(OC)c34)[C@@H]2C[C@@H]1/C(=C\\OC)C(=O)N(C)C"
numeric_result = 6490

[[record]]
smiles_repr = "[2H]C([2H])([2H])N(C(=O)/C(=C/OC)[C@H]1C[C@H]2c3[nH]c4cccc(OC)c4c3CCN2C[C@H]1CC)C([2H])([2H])[2H]"
numeric_result = 8300


API: the following record is the query input.
Requested field: Ki. Item: `CC[C@@H]1CN2CCc3c([nH]c4cccc(OC)c34)[C@@H]2C[C@@H]1/C(=C\OC)C(=O)N(C)C1CCCCC1` 8290

---

Target: α2A adrenergic receptor (Homo sapiens, UniProt P08913)
Construct: Eurofins Cerep (contract screening)
Assay: Radioligand binding assay (Eurofins Cerep), [3H]RX 821002 displacement
Settings: Table B2; mean ± SEM, 3 independent experiments; read-out: Alpha2A Ki ± SEM
MEASURED ATTRIBUTE: pKi
Remember the convention: pKi equals -log10 of concentration in molar.

// lookup pKi for CC[C@@H]1CN2CCc3c([nH]c4cccc(OC)c34)[C@@H]2C[C@@H]1/C(=C\OC)C(=O)OC [Mitragynine, mitragynine, reference compound] 6.15

---

Target: hKOR (Homo sapiens)
Sequence (P41145 whole entry): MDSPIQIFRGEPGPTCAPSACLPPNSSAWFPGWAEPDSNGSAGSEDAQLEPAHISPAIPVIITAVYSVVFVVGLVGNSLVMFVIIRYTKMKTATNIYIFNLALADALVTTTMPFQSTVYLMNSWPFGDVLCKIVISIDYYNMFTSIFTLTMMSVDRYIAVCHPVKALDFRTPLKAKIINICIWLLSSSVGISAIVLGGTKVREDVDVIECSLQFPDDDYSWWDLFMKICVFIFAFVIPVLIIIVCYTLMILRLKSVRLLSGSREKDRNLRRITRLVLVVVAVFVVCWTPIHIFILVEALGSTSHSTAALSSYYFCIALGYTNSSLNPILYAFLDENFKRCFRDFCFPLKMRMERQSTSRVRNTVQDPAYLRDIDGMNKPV
Assay: Radioligand binding assay (Eurofins Cerep), [3H]U69,593 displacement
Conditions: Table 3-5; 3 independent experiments; read-out: Ki (nM ± SEM) KOR
MEASURED ATTRIBUTE: Ki

Which value of Ki has been reported for `COC(=O)CC1CCN(Cc2c[nH]c3ccccc23)CC1` in the records? 791 nM

Fill in the blank: the reported Ki of `COC(=O)CC1CCN(CCc2c[nH]c3cccc(OC)c23)CC1` is ____. > 10000 nM

Quick check: Ki of `CO/C=C(/C(=O)OC)C1CCN(CCc2c[nH]c3ccccc23)CC1` ? 3670 nM

---

Biological target: hDOR (Homo sapiens)
Test: Radioligand binding assay (Eurofins Cerep), [3H]DADLE displacement
Settings: DOR Ki ± SEM (nM), Table A1, data summary #1
Catalogue of Ki values
Response body: numeric value in nM, unit text excluded.

[[record]]
smiles_repr = "CC[C@@H]1CN2CCc3c([nH]c4cccc(OC)c34)[C@@H]2C[C@@H]1/C(=C\\OC)C(=O)N(C)C1CCCCC1"
measurement_target = "hDOR (Homo sapiens)"
numeric_result = 6490


Next compound, please.
Record request: Ki value, item `CC[C@@H]1CN2CCc3c([nH]c4cccc(OC)c34)[C@@H]2C[C@@H]1/C(=C\OC)C(=O)N(C)C` 6490
